Assay: self-splicing fitness, log relative to wild type (ln ratio); higher = more splicing; Tetrahymena group I intron in knt gene, E. coli kanamycin selection, DiMSum; sequences stand for … in CUCUCU…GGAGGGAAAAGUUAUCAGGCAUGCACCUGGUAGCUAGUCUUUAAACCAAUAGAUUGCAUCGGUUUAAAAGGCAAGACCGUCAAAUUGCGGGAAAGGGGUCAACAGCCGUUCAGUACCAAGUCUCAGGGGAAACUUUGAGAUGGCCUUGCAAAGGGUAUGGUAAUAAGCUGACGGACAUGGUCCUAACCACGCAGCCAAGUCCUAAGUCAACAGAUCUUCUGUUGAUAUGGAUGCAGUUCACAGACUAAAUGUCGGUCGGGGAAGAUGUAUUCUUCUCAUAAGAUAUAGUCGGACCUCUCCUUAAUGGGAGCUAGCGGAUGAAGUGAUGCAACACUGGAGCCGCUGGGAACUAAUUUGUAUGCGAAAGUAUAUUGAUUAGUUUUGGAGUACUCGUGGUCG;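 note: selection with 25 µg/mL kanamycin versus none on LB agar overnight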
Conditions: 37 °C
Rule: self-splicing fitness (ln) under -2 gives 0 (no), otherwise 1 (yes).

seq.string: CUGAAGCAAUAUUACGUCGC
class.assignment: 1 (yes)
--
seq.string: GACCAGCAAUAUUACGCUCG
class.assignment: 1 (yes)
--
seq.string: UAUUAGCAAUAUUACGGUUC
class.assignment: 0 (no)
--
seq.string: AAUCAGCAAUAUUACGUACU
class.assignment: 1 (yes)
--
seq.string: GUAUAGCAAUAUUACGCGGA
class.assignment: 1 (yes)

Does self-splicing fitness (ln) meet or surpass -2 for `AGGCAGCAAUAUUACGGAGG` ?
0 (no)

Does self-splicing fitness (ln) meet or surpass -2 for `UACCAGCAAUAUUACGGGGG` ?
1 (yes)

Does self-splicing fitness (ln) meet or surpass -2 for `GUUGAGCAAUAUUACGAGAA` ?
1 (yes)
